test-system: AT1R (Homo sapiens)
Sequence (P30556 whole entry): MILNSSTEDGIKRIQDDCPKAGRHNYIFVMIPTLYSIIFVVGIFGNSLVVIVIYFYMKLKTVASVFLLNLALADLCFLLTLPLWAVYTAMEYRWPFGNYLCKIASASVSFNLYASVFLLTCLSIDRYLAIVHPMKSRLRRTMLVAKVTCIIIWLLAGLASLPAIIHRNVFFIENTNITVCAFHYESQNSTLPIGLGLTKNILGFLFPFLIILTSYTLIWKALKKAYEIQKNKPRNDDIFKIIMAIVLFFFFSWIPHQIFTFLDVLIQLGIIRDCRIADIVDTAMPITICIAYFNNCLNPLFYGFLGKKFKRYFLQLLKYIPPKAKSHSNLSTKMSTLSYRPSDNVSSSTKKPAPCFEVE
method: β-arrestin2 recruitment BRET (β-arrestin2-RLucII/rGFP-CAAX) in HEK293 cells expressing AT1R
Format: cell-based
Parameters: expressed in transfected cells; host or cells: HEK293 cells, transient PEI transfection
assay-context: HEK293 cells transiently expressing AT1R; β-arrestin2-RLucII/rGFP-CAAX BRET; read 10 min after ligand; mean ± SEM of at least three to five independent experiments; SEM; read-out: EC50 βarr2
pEC50: −log10 of the molar value. Peptide text beside a SMILES is read from it.
# reported pEC50; entries follow

| molecule | test-system | pEC50 |
| --- | --- | --- |
| CC[C@H](C)[C@H](NC(=O)[C@H](Cc1ccc(O)cc1)NC(=O)[C@@H](NC(=O)[C@H](CCCNC(=N)N)NC(=O)[C@@H](N)CC(=O)O)C(C)C)C(=O)N[C@@H](Cc1c[nH]cn1)C(=O)N1CCC[C@H]1C(=O)N[C@@H](Cc1cccnc1)C(=O)O | AT1R (Homo sapiens) | 8.43 |
| CC[C@H](C)[C@H](NC(=O)[C@H](Cc1ccc(O)cc1)NC(=O)[C@@H](NC(=O)[C@H](CCCNC(=N)N)NC(=O)[C@@H](N)CC(=O)O)C(C)C)C(=O)N[C@@H](Cc1c[nH]cn1)C(=O)N1CCC[C@H]1C(=O)N[C@@H](Cc1ccc(OCc2ccccc2)cc1)C(=O)O | AT1R (Homo sapiens) | 8.60 |
| CC[C@H](C)[C@H](NC(=O)[C@H](Cc1ccc(O)cc1)NC(=O)[C@@H](NC(=O)[C@H](CCCNC(=N)N)NC(=O)[C@@H](N)CC(=O)O)C(C)C)C(=O)N[C@@H](Cc1c[nH]cn1)C(=O)N1CCC[C@H]1C(=O)N[C@@H](CCC(N)=O)C(=O)O [compound 7] (H-DRVYIHPQ-OH; N-terminus assumed) | AT1R (Homo sapiens) | 6.80 |
| CC[C@H](C)[C@H](NC(=O)[C@H](Cc1ccc(O)cc1)NC(=O)[C@@H](NC(=O)[C@H](CCCNC(=N)N)NC(=O)[C@@H](N)CC(=O)O)C(C)C)C(=O)N[C@@H](Cc1c[nH]cn1)C(=O)N1CCC[C@H]1C(=O)N[C@@H](COCc1ccccc1)C(=O)O | AT1R (Homo sapiens) | 8.52 |

Data provenance: paper doi:10.1101/2025.08.13.670122v1
